Assign pIC50 to each entry below.
biological target: recombinant human MER (Homo sapiens); experiment: HTRF KinEASE-TK biochemical potency, MER; settings: 1 nM MER, 700 μM ATP
Sequence (Q12866 21-999): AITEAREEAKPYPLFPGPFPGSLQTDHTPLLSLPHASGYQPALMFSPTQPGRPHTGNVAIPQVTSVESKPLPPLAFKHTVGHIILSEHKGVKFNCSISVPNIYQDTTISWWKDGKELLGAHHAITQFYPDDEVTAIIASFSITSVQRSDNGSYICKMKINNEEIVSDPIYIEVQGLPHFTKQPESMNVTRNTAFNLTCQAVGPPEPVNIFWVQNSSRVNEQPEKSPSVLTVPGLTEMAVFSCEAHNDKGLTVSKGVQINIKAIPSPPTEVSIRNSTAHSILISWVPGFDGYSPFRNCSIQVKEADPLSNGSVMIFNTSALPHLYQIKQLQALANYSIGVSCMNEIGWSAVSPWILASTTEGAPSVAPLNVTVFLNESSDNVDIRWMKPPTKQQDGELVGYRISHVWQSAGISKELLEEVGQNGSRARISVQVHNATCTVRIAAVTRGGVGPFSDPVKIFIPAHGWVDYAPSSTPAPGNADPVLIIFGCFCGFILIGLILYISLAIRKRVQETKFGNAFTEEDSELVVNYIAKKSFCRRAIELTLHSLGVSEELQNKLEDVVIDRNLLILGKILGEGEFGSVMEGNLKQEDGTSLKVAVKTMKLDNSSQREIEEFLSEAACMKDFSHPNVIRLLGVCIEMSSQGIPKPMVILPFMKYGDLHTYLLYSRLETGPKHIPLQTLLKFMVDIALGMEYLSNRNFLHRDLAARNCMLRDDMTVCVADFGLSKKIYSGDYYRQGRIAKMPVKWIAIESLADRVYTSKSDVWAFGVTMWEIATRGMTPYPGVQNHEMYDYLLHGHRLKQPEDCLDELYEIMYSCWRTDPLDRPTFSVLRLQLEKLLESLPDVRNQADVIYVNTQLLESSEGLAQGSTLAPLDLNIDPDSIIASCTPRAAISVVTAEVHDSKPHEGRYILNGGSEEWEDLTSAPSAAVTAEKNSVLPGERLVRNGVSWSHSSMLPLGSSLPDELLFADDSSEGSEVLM
pIC50: −log10 of the molar value.

Before answering, review these 4 worked examples.
C[C@H]1CCCN1C1Cc2ccc(-c3cnc4[nH]nc(-c5ccc6c(c5)OCC(C)(C)NC6=O)c4c3)cc2C1 (stereo partly drawn): 6.00 to 7.00
Cc1cc2c(cc1-c1cnc3[nH]nc(-c4ccc5c(c4)OCCNC5=O)c3c1)CCC(N1CCC[C@H]1C)CC2 (stereo partly drawn): > 7.00
O=C1NCCOc2cc(-c3n[nH]c4ncc(-c5ccc6c(c5)CC(N5CCCC5)CC6)cc34)ccc21 (stereo not drawn): > 7.00
C[C@@H]1CCCN1C1CCc2ccc(-c3cnc4[nH]nc(-c5ccc6c(c5)S(=O)(=O)NC6(C)C)c4c3)cc2CC1 (stereo partly drawn): > 7.00

State the recorded pIC50 for every item in the following list.
1. C[C@@H]1CCCN1C1CCc2cc(-c3cnc4[nH]nc(-c5ccc6c(c5)OCCNC6=O)c4c3)cc(Cl)c2CC1 (stereo partly drawn)
2. O=C1NCCOc2cc(-c3n[nH]c4ncc(-c5ccc6c(c5)CC[C@@H](N5CCCC5)CC6)cc34)ccc21 (single isomer, unassigned)

Response:
> 7.00
> 7.00

###

Assign IC50 to each entry below.
Target: UniProt P30530
Sequence (P30530 26-894): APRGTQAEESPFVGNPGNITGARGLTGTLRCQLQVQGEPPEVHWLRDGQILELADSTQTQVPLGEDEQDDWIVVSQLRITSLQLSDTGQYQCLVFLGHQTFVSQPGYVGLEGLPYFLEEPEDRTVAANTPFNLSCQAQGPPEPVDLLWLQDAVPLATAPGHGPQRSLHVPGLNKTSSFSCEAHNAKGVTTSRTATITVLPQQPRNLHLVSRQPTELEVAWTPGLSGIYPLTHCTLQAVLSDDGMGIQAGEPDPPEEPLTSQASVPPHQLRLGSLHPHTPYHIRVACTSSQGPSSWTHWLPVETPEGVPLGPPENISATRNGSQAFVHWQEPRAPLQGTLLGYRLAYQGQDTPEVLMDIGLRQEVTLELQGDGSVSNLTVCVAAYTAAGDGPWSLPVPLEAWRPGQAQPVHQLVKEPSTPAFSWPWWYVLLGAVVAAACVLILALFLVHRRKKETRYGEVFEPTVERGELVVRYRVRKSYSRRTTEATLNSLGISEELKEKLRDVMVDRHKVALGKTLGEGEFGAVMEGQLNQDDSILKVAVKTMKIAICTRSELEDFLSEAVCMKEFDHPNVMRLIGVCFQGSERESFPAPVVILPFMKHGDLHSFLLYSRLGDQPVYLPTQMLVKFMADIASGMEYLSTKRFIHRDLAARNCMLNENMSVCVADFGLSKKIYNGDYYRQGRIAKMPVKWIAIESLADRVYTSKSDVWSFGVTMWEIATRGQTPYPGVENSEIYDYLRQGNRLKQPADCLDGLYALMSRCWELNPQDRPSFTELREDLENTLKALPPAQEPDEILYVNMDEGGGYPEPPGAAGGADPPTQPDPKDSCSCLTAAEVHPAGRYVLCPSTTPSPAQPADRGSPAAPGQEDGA
Assay: Axl NanoBRET intracellular kinase assay (Cell Binding)
Design: host or cells: HEK-293
Details: HEK-293 cells transfected with Axl-NanoLuc fusion vector; displacement of K-5 NanoBRET tracer

State the recorded IC50 for every item in the following list.
1. C[C@@H]1CCCN1C1CCc2cc(F)c(-c3cnc4[nH]nc(-c5ccc6c(c5)OCCNC6=O)c4c3)cc2CC1 (some centres unmarked)
2. O=C1NCCOc2cc(-c3n[nH]c4ncc(-c5ccc6c(c5)CCN(C5COC5)CC6)cc34)ccc21
3. O=C1NCCOc2cc(-c3n[nH]c4ncc(-c5ccc6c(c5)CCC(N5CCNCC5)CC6)cc34)ccc21 (centres unmarked)
4. C[C@@H]1CCCN1C1CCc2cc(-c3cnc4[nH]nc(-c5ccc6c(c5)OCCNC6=O)c4c3)cc(Cl)c2CC1 (some centres unmarked)
5. C[C@@H]1CCCN1C1CCc2ccc(-c3cnc4[nH]nc(-c5ccc6c(c5)OCC5(CC5)NC6=O)c4c3)cc2CC1 (some centres unmarked)
6. CC(C)(O)C(=O)N1CCc2ccc(-c3cnc4[nH]nc(-c5ccc6c(c5)OCCNC6=O)c4c3)cc2CC1

Response:
1. < 100 nM
2. 100 to 1000 nM
3. 100 to 1000 nM
4. < 100 nM
5. < 100 nM
6. 100 to 1000 nM

State the recorded IC50 for every item in the following list.
1. O=C1NCCOc2cc(-c3n[nH]c4ncc(-c5ccc6c(c5)CCC(N5CCC[C@H]5CO)CC6)cc34)ccc21 (some centres unmarked)
2. Cc1cc2c(cc1-c1n[nH]c3ncc(-c4ccc5c(c4)CCC(N4CCC[C@H]4C)CC5)cc13)OCCNC2=O (some centres unmarked)

Response:
1. < 100 nM
2. < 100 nM
